Measure name: pKd
Answer as the number alone; pKd is minus log10 of concentration in mol/L.

Look up and report measured pKd (Lysophosphatidic acid receptor 1 (Homo sapiens)) for the following molecule: CCCCCCCC/C=C\CCCCCCCC(=O)OC[C@@H](O)COP(=O)(O)O 8.25

---

- Method: Stability of the compound in PBS at pH 7.4 assessed as parent compound remaining incubated up to 8 hrs by HPLC-MS
- Assay type: physicochemical
- Assay context: read-out: Stability
Measure name: remaining at 8 h

Provide measured remaining at 8 h value, entry: O=C(CCCCCCCCCc1ccccc1)O[C@H](CBr)COP(=O)(O)O > 85%

---

- Method: Stability of the compound in culture medium assessed as parent compound remaining incubated for up to 8 hrs by HPLC-MS
- Assay type: physicochemical
- Assay context: read-out: Stability
Measure name: remaining at 8 h

State its remaining at 8 h: O=C(CCCCCCCCCc1ccccc1)O[C@H](CBr)COP(=O)(O)O > 85%

---

- Measurement target: Lysophosphatidic acid receptor 1 (Homo sapiens, UniProt Q92633)
- Sequence (Q92633 whole entry): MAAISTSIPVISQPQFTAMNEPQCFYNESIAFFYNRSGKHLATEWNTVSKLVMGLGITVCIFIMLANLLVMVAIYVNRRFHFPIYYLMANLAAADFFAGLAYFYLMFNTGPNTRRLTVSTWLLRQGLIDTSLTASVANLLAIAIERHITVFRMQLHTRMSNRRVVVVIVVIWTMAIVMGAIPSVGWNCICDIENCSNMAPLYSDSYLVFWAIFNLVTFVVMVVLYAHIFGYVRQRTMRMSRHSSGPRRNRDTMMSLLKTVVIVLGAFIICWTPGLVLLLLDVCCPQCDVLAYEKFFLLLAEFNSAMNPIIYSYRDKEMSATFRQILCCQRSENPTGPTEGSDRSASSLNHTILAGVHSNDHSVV
- Method: Agonist activity at LPA1 receptor (unknown origin) stably expressed in rat RH7777 cells assessed as increase in intracellular calcium level by Fluo-4 NW dye based fluorescence assay
- Assay type: functional, cell-based
Measure name: EC50 (µM)
# unit: µM | format: bare number

Consider the molecule CCCCCCCC/C=C\CCCCCCCC(=O)O[C@H](CBr)COP(=O)(O)O and give its recorded EC50. 3.2

Retrieve EC50 measured for CCCCCCCC/C=C\CCCCCCCC(=O)OC[C@@H](O)COP(=O)(O)O and print it. 0.83

Assign EC50 to the following record: O=C(CCCCCCCCCCCCc1ccc(-c2ccccc2)cc1)OC[C@@H](O)COP(=O)(O)O 19

---

- Measurement target: Lysophosphatidic acid receptor 1 (Homo sapiens, UniProt Q92633)
- Method: Agonist activity at recombinant human full-length LPA1 receptor expressed in dhfr- deficient CHO cells assessed as increase in intracellular calcium flux measured for 1 min by fluo-3AM dye based FLIPR assay
- Format: functional, cell-based
Measure name: pEC50
Convention used: pEC50 is expressed as -log10 of the molar concentration.

Tell me its pEC50 given CC1CCC2(C)c3[nH]c4ccccc4c3CCN2C1 (stereo unspecified) as the entry. 5.44
